Where these numbers come from: ChEMBL document CHEMBL1121886

- Tested on: P388
- experiment-notes: Optimal dose effective against P388 murine leukemia in mice
- Assay type: functional, Mus musculus
Field: Dose. Provide a value for each of the molecules that follow.
Hi! Could you send only the number? It should be in mg/kg, unit omitted.

The recorded Dose for entry COc1c(C)c(O)c2c(c1O)c(COC(N)=O)c1n2C[C@@H]2[C@H]1N2C (stereo not given in full) equals 12.8

The recorded Dose for entry CC1=C(N2CC2)C(=O)c2c(COC(N)=O)c3n(c2C1=O)CCC3OC(N)=O (stereo not given) equals 51.2

The recorded Dose for entry COC1=C(C)C(=O)c2c(c(COC(N)=O)c3n2CCC3OC(C)=O)C1=O (stereo not given) equals 6.4

The recorded Dose for entry CNC(=O)OC1CCn2c3c(c(CCl)c21)C(=O)C(OC)=C(C)C3=O (stereo not given) equals 12.8

The recorded Dose for entry COC1=C(C)C(=O)c2c(c(COC(N)=O)c3n2CCC3OC(N)=O)C1=O (stereo not given) equals 6.4

* * *

- experiment-notes: Therapeutic ratio of optimal dose to minimum effective dose(MED)
- Format: ADME
- measurement-conditions: mouse, p388
endpoint-name: selectivity ratio
Lab note: jot the number down without any unit.

The recorded selectivity ratio for entry COC1=C(C)C(=O)c2c(c(COC(N)=O)c3n2CCC3)C1=O equals 1

* * *

- Test system: P388
- experiment-notes: Minimum effective dose (MED) against P388 murine leukemia in mice
- Assay type: functional
- measurement-conditions: Mus musculus, read-out: MED
Field: minimal effective dose. Provide a value for each of the compounds that follow.
Hi! Could you send only the number? It should be in mg/kg, unit omitted.

The recorded minimal effective dose for entry CNC(=O)OC1CCn2c3c(c(CCl)c21)C(=O)C(OC)=C(C)C3=O (centres undefined) equals 12.8

The recorded minimal effective dose for entry COc1c(C)c(O)c2c(c1O)c(COC(N)=O)c1n2C[C@@H]2[C@H]1N2C (some centres undefined) equals 0.8

The recorded minimal effective dose for entry COC1=C(C)C(=O)c2c(c(COC(N)=O)c3n2CCC3OC(N)=O)C1=O (centres undefined) equals 0.4

The recorded minimal effective dose for entry COC1=C(C)C(=O)c2c(c(COC(N)=O)c3n2CCC3)C1=O equals 51.2
